# Test system: MDA-MB-453
# Assay Method Text: drug sensitivity score (DSS), single agent (DSS (weighted AUC score)); higher = more sensitive (stronger viability decrease); extreme values may be limits of the assay
# Assay Context: BLU9931 0 nM; 72 h
Record form. Attribute: drug sensitivity score. Fill in for each entry.
In your answer, state the number alone without any accompanying words.

Enquiry: Give the value of drug sensitivity score reported for the following: CC[C@H](C)C(=O)O[C@H]1C[C@H](O)C=C2C=C[C@H](C)[C@H](CC[C@@H](O)C[C@@H](O)CC(=O)O)[C@H]21
Return: 0

Enquiry: Give the value of drug sensitivity score reported for the following: CNC(=O)c1ccc(C)c(-n2c(C)cc(OCc3ccc(F)cc3F)c(Br)c2=O)c1
Return: 0.1

Enquiry: Give the value of drug sensitivity score reported for the following: C/C=C1\NC(=O)[C@H]2CSSCC/C=C/[C@H](CC(=O)N[C@H](C(C)C)C(=O)N2)OC(=O)[C@H](C(C)C)NC1=O
Return: 32

Enquiry: Give the value of drug sensitivity score reported for the following: Nc1ccccc1NC(=O)c1ccc(CNc2nccc(-c3cccnc3)n2)cc1
Return: 16

Enquiry: Give the value of drug sensitivity score reported for the following: CC(C)c1cc(-c2n[nH]c(=O)n2-c2ccc3c(ccn3C)c2)c(O)cc1O
Return: 18.7

Enquiry: Give the value of drug sensitivity score reported for the following: CC1(COc2ccc3c(c2)ncn3-c2ccc3cccc(N4CCC(N)CC4)c3n2)COC1
Return: 7.5

Enquiry: Give the value of drug sensitivity score reported for the following: C=CCn1c(=O)c2cnc(Nc3ccc(N4CCN(C)CC4)cc3)nc2n1-c1cccc(C(C)(C)O)n1
Return: 13.7

Enquiry: Give the value of drug sensitivity score reported for the following: COc1cccc(OCCCN)c1-c1cc(Nc2cnc(C#N)cn2)n[nH]1
Return: 28

Enquiry: Give the value of drug sensitivity score reported for the following: C[C@H](Nc1ncnc2nc[nH]c12)c1cc2cccc(Cl)c2c(=O)n1-c1ccccc1
Return: 0

Enquiry: Give the value of drug sensitivity score reported for the following: Cc1c(N)nc([C@H](CC(N)=O)NC[C@H](N)C(N)=O)nc1C(=O)N[C@H](C(=O)N[C@H](C)[C@@H](O)[C@H](C)C(=O)N[C@H](C(=O)NCCc1nc(-c2nc(C(=O)NCCC[S+](C)C)cs2)cs1)[C@@H](C)O)[C@@H](OC1OC(CO)C(O)C(O)C1OC1OC(CO)C(O)C(OC(N)=O)C1O)c1cnc[nH]1 (stereo not given in full)
Return: 0
